Reference source for all entries: patent EP4722213A1

Observed pIC50 for SOS1 (Homo sapiens), reported per entry below.
The quantity pIC50 is defined as the negative base-10 logarithm of the molar concentration.

Solved cases below.
compound | pIC50
C[C@@H](Nc1nnc(N2CCN(C3CCCC3)CC2)c2cc(=O)n(N3CC4CCCC4C3)cc12)c1cccc(C(F)F)c1F (some centres unmarked) [Example 140] | 8.07
C[C@@H](Nc1nnc(N2CCN(C3CCC3)CC2)c2cc(=O)n(C3(C)CC3)cc12)c1cccc(C(F)(F)F)c1F [Example 173] | 8.28
C[C@@H](Nc1nnc(N2CC3(COC3)C2)c2cc(=O)n(C3(C)CC3)cc12)c1cccc(C(F)F)c1F [Example 190] | 8.38
Cc1c(C#N)cccc1[C@@H](C)Nc1nnc(N2CCN(CC3CC3)CC2)c2cc(=O)n(C3CC3)cc12 [Example 102] | 7.90

**Query** Entry C[C@@H](Nc1nnc(N2CC(F)(F)C2)c2cc(=O)n(C3CC3)cc12)c1cccc(C(F)F)c1F [Example 20] , system SOS1 (Homo sapiens): what pIC50 was measured?
**Result** 7.62

**Query** Give SOS1 (Homo sapiens) pIC50 for CCN(CC)c1nnc(N[C@H](C)c2cccc(C(F)(F)F)c2C)c2cn(C3CC3)c(=O)cc12 [Example 53]
**Result** 7.61

**Query** Form field: pIC50 recorded for Cc1c([C@@H](C)Nc2nnc(N3CCS(=O)(=O)CC3)c3cc(=O)n(C4(C)CC4)cc23)cccc1C(F)(F)F [Example 68] with SOS1 (Homo sapiens) (enter value)
**Result** 7.72

**Query** So what pIC50 did C[C@@H](Nc1nnc(N2CCN3CCCC3C2)c2cc(=O)n(C3(C)CC3)cc12)c1cccc(C(F)F)c1F (some centres unmarked) [Example 192] get with SOS1 (Homo sapiens)?
**Result** 8.42

**Query** Report pIC50 for Cc1c(C#N)cccc1[C@@H](C)Nc1nnc(N2CCN(C)[C@H](C)C2)c2cc(=O)n(N3CC4CCCC4C3)cc12 (some centres unmarked) [Example 167] tested on SOS1 (Homo sapiens).
Sequence (Q07889 whole entry): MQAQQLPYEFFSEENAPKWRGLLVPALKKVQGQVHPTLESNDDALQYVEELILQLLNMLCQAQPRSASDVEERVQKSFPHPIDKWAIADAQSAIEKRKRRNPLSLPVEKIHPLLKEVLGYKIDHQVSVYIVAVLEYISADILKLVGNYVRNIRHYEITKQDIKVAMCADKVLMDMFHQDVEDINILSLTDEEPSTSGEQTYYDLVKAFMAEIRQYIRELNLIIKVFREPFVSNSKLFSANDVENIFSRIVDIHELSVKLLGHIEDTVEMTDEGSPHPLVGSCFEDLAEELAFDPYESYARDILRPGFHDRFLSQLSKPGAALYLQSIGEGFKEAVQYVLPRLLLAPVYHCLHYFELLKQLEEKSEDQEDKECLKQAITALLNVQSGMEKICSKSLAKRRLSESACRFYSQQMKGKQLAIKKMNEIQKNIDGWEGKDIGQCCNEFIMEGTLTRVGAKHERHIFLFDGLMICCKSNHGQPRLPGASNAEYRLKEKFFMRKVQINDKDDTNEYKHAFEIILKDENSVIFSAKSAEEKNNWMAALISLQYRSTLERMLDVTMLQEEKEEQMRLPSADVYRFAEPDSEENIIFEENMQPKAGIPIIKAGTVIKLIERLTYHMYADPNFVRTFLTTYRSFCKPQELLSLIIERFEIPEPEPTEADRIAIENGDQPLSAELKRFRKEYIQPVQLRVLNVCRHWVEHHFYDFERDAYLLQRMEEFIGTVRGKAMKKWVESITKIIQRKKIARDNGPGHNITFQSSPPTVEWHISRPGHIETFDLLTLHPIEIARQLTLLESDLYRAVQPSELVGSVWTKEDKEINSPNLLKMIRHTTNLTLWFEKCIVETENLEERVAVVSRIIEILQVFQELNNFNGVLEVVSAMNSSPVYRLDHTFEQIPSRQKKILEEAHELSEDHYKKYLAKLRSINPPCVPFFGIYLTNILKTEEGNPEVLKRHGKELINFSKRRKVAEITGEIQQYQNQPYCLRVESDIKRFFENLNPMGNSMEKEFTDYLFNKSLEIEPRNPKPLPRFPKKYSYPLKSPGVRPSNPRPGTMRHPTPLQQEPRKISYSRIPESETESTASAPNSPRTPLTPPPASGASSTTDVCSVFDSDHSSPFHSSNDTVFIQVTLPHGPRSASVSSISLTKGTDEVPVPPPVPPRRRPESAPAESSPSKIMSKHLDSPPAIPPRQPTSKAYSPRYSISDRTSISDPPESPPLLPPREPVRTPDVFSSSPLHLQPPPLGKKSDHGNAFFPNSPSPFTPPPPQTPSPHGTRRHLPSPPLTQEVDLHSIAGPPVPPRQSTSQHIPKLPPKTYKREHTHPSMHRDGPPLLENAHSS
**Result** 8.20
